meta.source: the supplement of paper PMC10567573

Consider the following variants and their measured protein stability index readings.
B1: IFRG15 (parent)
chain: INRADYCPECYPDNPANRSLVLPW

Variants of: B1
Experiment: protein stability index of a GFP-peptide fusion (GPS, HEK-293T) (PSI 1-6); higher = more stable;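 further: lentivirally expressed fusions sorted by FACS into six bins by GFP to DsRed ratio, PSI derived from sequencing read proportions per bin multiplied by bin number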
Settings: c terminus: a fixed tail appended
The answer should be written as a number, with no unit following it.

Use these answered entries as a reference point.
N14C
2.2
Y6D
2.9
A16S
2.42

Prompt: What measured protein stability index goes with `C10L` ?
Completion: 2.31

Prompt: Form field: reported protein stability index of `V21L`
Completion: 2.53

Prompt: Requested field: protein stability index. Item: `C10M`
Completion: 2.83

Prompt: GET /values?readout=protein stability index&item= `L22N`
Completion: 2.65

Prompt: Fill in: protein stability index of `E9H` is ___
Completion: 1.63

Prompt: Give the measured protein stability index of `A4M` .
Completion: 1.51

Prompt: Field request: protein stability index | item: `A4K`
Completion: 2.16

Prompt: Need protein stability index, item `P23L`
Completion: 1.57
